- SYSTEM TESTED: recombinant human MASP2 active protease (amino acids 297-686, C-terminal His Tag) (human, UniProt O00187 297-686)
- Sequence (O00187 other isoform, or with tags, fused parts or gaps limits assumed): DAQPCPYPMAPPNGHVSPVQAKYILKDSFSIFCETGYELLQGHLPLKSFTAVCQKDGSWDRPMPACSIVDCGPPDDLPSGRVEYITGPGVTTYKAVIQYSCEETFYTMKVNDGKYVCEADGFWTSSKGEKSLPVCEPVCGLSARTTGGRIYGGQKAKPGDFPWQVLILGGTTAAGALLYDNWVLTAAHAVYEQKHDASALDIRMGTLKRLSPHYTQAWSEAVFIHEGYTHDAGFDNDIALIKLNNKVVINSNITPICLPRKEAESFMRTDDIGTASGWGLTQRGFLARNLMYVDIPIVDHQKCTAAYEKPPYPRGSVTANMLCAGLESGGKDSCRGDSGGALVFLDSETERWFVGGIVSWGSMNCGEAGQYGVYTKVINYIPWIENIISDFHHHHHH
- PROTOCOL SUMMARY: cell-based or functional assay
Bridge positions count the residues as written; N and C are the ends. Square brackets hold non-standard residues; d marks the D form. Ends that are not written are not given here. tBuAla = CC(C)(C)C[C@H](N)C(=O)O; Pen = CC(C)(S)[C@H](N)C(=O)O
READOUT TYPE: human MASP2 IC50 (µM)
Report only the number, with the unit µM understood.

Return the recorded human MASP2 IC50 value; entry: PPICSRS[tBuAla]PPI[Pen]IP-NH2 (disulfide 4-12; N-terminus assumed; SMILES CC[C@H](C)[C@H](NC(=O)[C@@H]1CCCN1C(=O)[C@@H]1CCCN1)C(=O)N[C@H]1CSSC(C)(C)[C@@H](C(=O)N[C@H](C(=O)N2CCC[C@H]2C(N)=O)[C@@H](C)CC)NC(=O)[C@H]([C@@H](C)CC)NC(=O)[C@@H]2CCCN2C(=O)[C@@H]2CCCN2C(=O)[C@H](CC(C)(C)C)NC(=O)[C@H](CO)NC(=O)[C@H](CCCNC(=N)N)NC(=O)[C@H](CO)NC1=O) [Example 378: PPIC+SRS-((tBu)A)-PPI-(Pen)+IP-NH2]
1.1

Data origin, for the record: patent US20210246166A1
